Recorded TGI values for a group of molecules are listed next.
- Test system: U251 CNS
- Assay explanation: NCI tumour cell line growth inhibition, 48 h
Value type: TGI

                                    molecule  value_type  assay_value
 0  CC(=Nc1ccc(S(N)(=O)=O)cc1)c1c(O)[nH]c2ccccc12         TGI      > 25 µM
 1      Cc1cccc(/C(Br)=C2/OC(=O)c3ccccc32)c1         TGI     > 100 µM
 2  CCOC(=O)NC(Nc1c(F)c(F)c(F)c(F)c1F)(C(F)(F)F)C(F)(F)F         TGI     > 100 µM
 3  N.N.N.N.N.O=S(=O)([O-])S(=O)(=O)[O-].[Co+3]         TGI     > 100 µM
 4  CC(C)(C)OC(=O)NC1CCCC1=O (stereo unspecified)         TGI     > 100 µM
 5  O=[N+]([O-])c1ccc(-c2cc3c(Nc4ccc(Cl)c(C(F)(F)F)c4)ncnc3s2)cc1         TGI    > 87.8 µM
 6  COP(=O)(OC)C(Nc1ccc(Cc2ccc(NC(c3ccco3)P(=O)(OC)OC)cc2)cc1)c1ccco1 (stereo unspecified)         TGI      21.4 µM
 7  C(=C\c1ccccc1)/COc1ccccc1C(N1CCOCC1)n1nc2ccccc2n1 (stereo unspecified)         TGI      17.6 µM
 8  CC(=O)n1nc(-c2ccccc2)n(/N=C/c2ccc([N+](=O)[O-])o2)c1=O         TGI      33.4 µM
 9                                 O=S1CSSC1         TGI      37.5 µM
10  Nc1ccc(-c2nn3c(COc4ccc(Cl)cc4)nnc3s2)cc1         TGI     > 100 µM

###

Recorded TGI values for a group of molecules are listed next.
- Tested on: MCF7 breast
- Assay explanation: NCI tumour cell line growth inhibition, 48 h
Value type: TGI

                                   molecule  value_type  assay_value
0  COc1cc2nc(-c3ccc(C(F)(F)F)cc3)cc(OCCCN3CCCC3)c2cc1OC         TGI      4.13 µM
1  COc1ccc(NC(C)c2ccncc2)cc1 (stereo not given)         TGI     > 100 µM
2  O=C(OCC1OC(n2nc(Cn3nnc(-c4cccnc4)n3)n(-c3cccc4ccccc34)c2=S)C(OC(=O)c2ccccc2)C1OC(=O)c1ccccc1)c1ccccc1 (stereo not given)         TGI     > 100 µM
3                CCn1c(-c2nonc2N)nc2ccncc21         TGI      > 25 µM
4  O=C1/C(=C/c2cccc([N+](=O)[O-])c2)Sc2scc(-c3ccc([N+](=O)[O-])cc3)[n+]21         TGI     > 100 µM
5  COc1ccc(C2c3cc4c(cc3OC(NCCO)C2C)OCO4)cc1 (stereo not given)         TGI      66.7 µM
6  O=S1(=O)c2cnccc2NC(=NCc2ccccc2)N1c1ccccc1         TGI     > 100 µM
7  COc1ccc(N2C(=O)C3c4[nH]c5ccccc5c4C4CCCCCCCCCC4C3C2=O)cc1 (stereo not given)         TGI      > 10 µM
8  S=C1NC2=C(CSC/C2=C\c2ccccc2)C(c2ccccc2)N1 (stereo not given)         TGI     > 100 µM
9  O=C(CC(=O)Nc1ccccc1)NNC(c1cc(N=Nc2ccc(Br)cc2)ccc1O)P(O)O (stereo not given)         TGI      > 10 µM
